assayedTarget: T1, human CD47 on cells (SHP-77 tumor cells, human red blood cells, CCRF-CEM cells, human CD47 CHO-K1 stable cell … (human, UniProt Q08722 19-323))
T1 construct: whole, on cells; also called RBC
experimentalProtocol: flow cytometry on human RBCs;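 also: antibody binding measured by flow cytometry as geometric mean fluorescence intensity over a range of antibody concentrations, with EC50 and maximum taken from a sigmoidal dose-response fit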
measuredEndpoint: EC50

108VH10.Mp / 108VL10.Me (antibody, V domains shown, 4D5-framework series; constant regions not restated for this series; also called VH10.Mp VL10.Me) VH: EVQLVESGGGLVQPGGSLRLSCAASGFTFSHHWIHWVRQAPGKGLEWVAMIDASDSETRLVDSFKGRFTISADTSKNTAYLQMNSLRAEDTAVYYCSRLGRYYFDYWGQGTLVTVSS VL: DIQMTQSPSSLSASVGDRVTITCRASQSISSYLNWYQQKPGKAPKLLIYGASSRYSGVPSRFSGSRSGTDFTLTISSLQPEDFATYYCGESYGHLYTFGQGTKVEIK	23.6 nM
108VH5.M15 / 108VL1.M5 (antibody, human IgG4 S228P, kappa, V domains shown, Full-length IgG4 (S228P), kappa; also called VH5.M15 VL1.M5) VH: EVQLVQSGAEVKKPGASVKVSCKASGYTFTHHWIHWVRQAPGQGLEWMGMIDASDSSTRYAQKFQGRVTMTRDTSTSTVYMELSSLRSEDTAVYYCARLGRYYFDYWGQGTLVTVSS VL: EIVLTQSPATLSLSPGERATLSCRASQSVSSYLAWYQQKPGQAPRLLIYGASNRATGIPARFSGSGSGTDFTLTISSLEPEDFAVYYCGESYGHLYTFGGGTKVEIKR	155 nM
108VH5.M27 / 108VL1.M5 (antibody, human IgG4 S228P, kappa, V domains shown, Full-length IgG4 (S228P), kappa; also called VH5.M27 VL1.M5) VH: EVQLVQSGAEVKKPGASVKVSCKASGYTFTHHWMHWVRQAPGQGLEWMGMIDASDYETRYAQKFQGRVTMTRDTSTSTVYMELSSLRSEDTAVYYCARLGRYYFDYWGQGTLVTVSS VL: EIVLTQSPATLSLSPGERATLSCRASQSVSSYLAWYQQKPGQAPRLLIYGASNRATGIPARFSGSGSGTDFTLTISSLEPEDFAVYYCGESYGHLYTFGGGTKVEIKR	4.7 nM
